Reported pIC50 is given for each of the following compounds.
tested on: RAW264.7; test: Antiinflammatory activity against mouse RAW264.7 cells assessed as inhibition of NO release; assay type: functional, cell-based
pIC50: −log10 of the molar value.

Previously resolved entries follow.
Quick check: pIC50 of "COc1cc(CCc2ccc(C(C)(C)C)cc2)cc(OC)c1" ?
< 4.30

Same again, this time with "COc1cc(CCc2ccco2)cc(OC)c1"
< 4.30

What do you have for "CC(C)(C)c1ccc(CCc2cc(O)cc(O)c2)cc1" ?
4.63

Now give it for "CC(C)(C)c1cc(CCc2cc(O)cc(O)c2)cc(C(C)(C)C)c1" too.
4.89

Try "Oc1cccc(CCc2cc(O)cc(O)c2)c1" next.
4.32

Next:
Quick check: pIC50 of "COc1cc(CCc2cccc(C#N)c2)cc(OC)c1" ?
< 4.30

Can you handle "COc1cc(CCc2cccc(C(F)(F)F)c2)cc(OC)c1" next?
< 4.30

Then Oc1cc(O)cc(CCc2ccccc2)c1 [DIHYDROPINOSYLVIN] ?
< 4.30

Query "COc1cc(/C=C/c2cc(C(C)(C)C)cc(C(C)(C)C)c2)cc(OC)c1" next
< 4.30

Param item: "C[C@@H]1C[C@H]2[C@@H]3CCC4=CC(=O)C=C[C@]4(C)[C@@]3(F)[C@@H](O)C[C@]2(C)[C@@]1(O)C(=O)CO"
< 4.30

Try this compound too: "COc1cccc(/C=C/c2cc(OC)cc(OC)c2)c1"
< 4.30
